Values from patent US6642411B1

- Assay Comment: Solubility of the carrier compound
- Format: physicochemical
- Condition Description: aqueous NaOH solution, aqueous buffer, thermodynamic from solid; 200 mg+350 μl 2N NaOH+650 μl H2O, pH 7.67; read-out: Solubility
Value Type: solubility (mg/mL)
Report the figure in mg/mL without appending any unit label.

For CC(C(=O)O)c1ccc(NC(=O)c2ccccc2O)cc1 (stereo not shown) [Example 1] , what is its reported solubility?
200
